- Assay remarks: Selectivity index, ratio of CC50 for bovine MDBK cells to EC50 for Bovine viral diarrhea virus NADL ATCC VR 534
- Format: toxicity
- Condition: cattle, read-out: Ratio CC50/EC50
Checkbox rule: selectivity ratio lower than 4 = T; selectivity ratio not lower than 4 = F.

NC(=O)c1ncn([C@@H]2O[C@H](CO)[C@@H](O)[C@H]2O)n1 [RIBAVIRIN] : T
Cc1cccc(C2CC(c3ccc(OCc4ccccc4)cc3)=NN2c2ccc(S(N)(=O)=O)cc2)c1 (stereo not drawn) : F
NS(=O)(=O)c1ccc(N2N=C(c3ccc(OCc4ccccc4)cc3)CC2c2ccc(Cl)cc2)cc1 (stereo not drawn) : T

A record lists NS(=O)(=O)c1ccc(N2N=C(c3ccc(OCc4ccccc4)cc3)CC2c2cccc(Cl)c2)cc1 (stereo not drawn) . Is its selectivity ratio below 4?
F

A record lists NS(=O)(=O)c1ccc(N2N=C(c3ccc(OCc4ccccc4)cc3)CC2c2ccccc2Cl)cc1 (stereo not drawn) . Is its selectivity ratio below 4?
F

A record lists NS(=O)(=O)c1ccc(N2N=C(c3ccc(OCc4ccccc4)cc3)CC2c2cccc(F)c2)cc1 (stereo not drawn) . Is its selectivity ratio below 4?
T

A record lists Cc1ccc(C2CC(c3ccc(OCc4ccccc4)cc3)=NN2c2ccc(S(N)(=O)=O)cc2)cc1 (stereo not drawn) . Is its selectivity ratio below 4?
F
